The origin of these recorded values is the supplement of paper PMC12042874.

- protocolDetails: amyloid nucleation score (Sup35N fusion, yeast selection) (log enrichment); library NNK2; higher = more nucleation; inactive = no reads after selection;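 further: zero at mode of non-aggregating sequences after 7 days selection at 30°C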
measurementType: amyloid nucleation score

>>> reading("VSRGGKHGVQIT")
"inactive"
>>> reading("YLSVPSGQSGGDGFNDESSV")
"inactive"
>>> reading("LRIGRYQN")
"inactive"

====

- protocolDetails: amyloid nucleation score (Sup35N fusion, yeast selection) (log enrichment); library NNK2; higher = more nucleation; inactive = no reads after selection
measurementType: amyloid nucleation score

>>> reading("GFGSVLIW")
-0.523
>>> reading("TEGYNMCDWCSSSLVKSVRM")
-0.223
>>> reading("VDLTIVHRGGGAGMGSNRVK")
0.176
>>> reading("LCGFTIPSNVSLGRR")
4
>>> reading("AFGRTTKKDVCLFGYPKQVE")
-0.235
>>> reading("TYEMTRMSGIKSSLLPREFW")
1.52
>>> reading("RMCLSVVNWSSRSHRSFHQP")
3.81
>>> reading("NVYSAYNLACFALLYCLLIW")
0.691
>>> reading("HEPGLPVRSCNVGRHSLSIL")
0.522
>>> reading("VINLGGSE")
0.406
>>> reading("NLNPRCIACLQQPTFHMKMA")
-0.101
>>> reading("DFMFFVYPSNSMLKGISRGR")
-1.77
>>> reading("SSYMSRALSCGHSFGKVGAN")
0.697
>>> reading("MTRTFYCFQGRHLDSWDQGE")
0.371
>>> reading("FFNLNQLMFKELSMRLGHRY")
0.066
>>> reading("TDLCCRLSIQLINHVYHSCL")
0.351
>>> reading("ETSFSTVRRQILSLLRLVSS")
0.326
>>> reading("NTGVIYDAT")
-0.307
